// values below are reported pKi
biological target: T1, hMC5-R (human, UniProt P33032 1-325); experiment: competition with [125I]-NDP-α-MSH, CHO-K1 membranes
T1 construct: whole, on cells; Assayed as membranes of CHO-K1 cells expressing the receptor; also called hMC-R receptor subtype 5; melanocortin-5 receptor (MC5-R)
T1 sequence (P33032 whole entry): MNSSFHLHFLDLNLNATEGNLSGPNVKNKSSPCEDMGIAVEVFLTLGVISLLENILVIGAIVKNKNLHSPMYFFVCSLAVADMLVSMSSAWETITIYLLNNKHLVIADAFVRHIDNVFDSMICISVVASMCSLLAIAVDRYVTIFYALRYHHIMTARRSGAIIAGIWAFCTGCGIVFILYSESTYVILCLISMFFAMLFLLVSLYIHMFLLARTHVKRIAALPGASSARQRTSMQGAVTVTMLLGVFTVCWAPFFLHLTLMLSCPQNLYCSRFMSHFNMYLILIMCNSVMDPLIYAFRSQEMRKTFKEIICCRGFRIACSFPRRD
Bridge positions count the residues as written; N and C are the ends. Square brackets hold non-standard residues; d marks the D form. Ends that are not written are not given here. Pen = CC(C)(S)[C@H](N)C(=O)O; Nle = CCCC[C@H](N)C(=O)O; GABA = NCCCC(=O)O
Would you please state pKi, meaning minus log10 of the concentration in mol/L, as a bare number?

Ac-RCH[dF]RW[GABA][Pen]-NH2 (disulfide 2-8; SMILES CC(=O)N[C@@H](CCCNC(=N)N)C(=O)N[C@H]1CSSC(C)(C)[C@@H](C(N)=O)NC(=O)CCCNC(=O)[C@H](Cc2c[nH]c3ccccc23)NC(=O)[C@H](CCCNC(=N)N)NC(=O)[C@@H](Cc2ccccc2)NC(=O)[C@H](Cc2c[nH]cn2)NC1=O) [Ac-Arg-c(Cys-His-D-Phe-Arg-Trp-Gaba-Pen)-NH2]	6.30
Ac-[Nle]C[dV]H[dF]RWC-NH2 (disulfide 2-8) [Ac-Nle-c(Cys-D-Val-His-D-Phe-Arg-Trp-Cys)-NH2]	7.40

Let us examine a further case.
Measured pKi, FCH[dF]RW[GABA]C-NH2 (disulfide 2-8; N-terminus assumed; SMILES N=C(N)NCCC[C@@H]1NC(=O)[C@@H](Cc2ccccc2)NC(=O)[C@H](Cc2c[nH]cn2)NC(=O)[C@@H](NC(=O)[C@@H](N)Cc2ccccc2)CSSC[C@@H](C(N)=O)NC(=O)CCCNC(=O)[C@H](Cc2c[nH]c3ccccc23)NC1=O) [Phe-c(Cys-His-D-Phe-Arg-Trp-Gaba-Cys)-NH2] : 9.27
